# target or test system: T1, His-tagged human CD38 (ACRO Biosystems cat #CD8-H5224) (human, UniProt P28907 43-300)
# T1 construct: bought recombinant protein with His tag
# experiment: ELISA, coated His-CD38
The following binders are listed with their measured ELISA 1 ug/ml values.

binder	ELISA 1 ug/ml
40769p1.1.B8 (scFv, V domains shown, tested as scFv-Fc supernatant) VH: EVQLLESGGGLVQPGGSLRLSCAASGFTFEDYAMSWVRQAPGKGLEWVSVISSKGGSTSNADSVKGRFTISRDNSKNTLYLQMNSLRAEDTAVYYCAKGMERQYYSYNAMDVWGQGTTVTVSS VL: QSVLTQPPSASGTPGQRVTISCSGSNSNIDVDYVYWYQQLPGTAPRLLIYKDDQRPSGVPDRFSGSKSGTSASLAISGLQSEDEADYYCATWDDNLNSWLFGGGTKLTVL	1.64
40769p1.1.G10 (scFv, V domains shown, tested as scFv-Fc supernatant) VH: EVQLLESGGGLVQPGGSLRLSCAASGFTFSDYWMNWVRQAPGKGLEWVSTISSGGSMIYHADSVKGRFTISRDNSKNTLYLQMNSLRPEDTAVYYCAKDNWNDYYGMDVWGQGTTVTVSS VL: QSVLTQPPSASGTPGQRVNISCSGSSSNIRYNYVYWYQQVPGTAPKLLIYKDDQRPSGVPDRFSGSESGTSASLAISGLQSEDEADYYCATWDGSLNARVFGGGTKLTVL	1.75
40566p1.F8 (scFv, V domains shown, tested as scFv-Fc supernatant) VH: DVQLVESGGGVVRPGESLRLSCAASGFTFDNYDMTWVRQAPGEGLEWVSFISSRGTFAYYTDSVKGRFTISRDNSKNTLYLQMNSLRAEDTAIYYCTKDSGEYYFFDYWGLGTLVTVSS VL: EIVMTQSPATLSVSPGERATFSCRASQSVNSKLAWYQQKPGQAPRLLIYGASRRATGIPDRFSGSGSGTEFTLTISSLQSEDFAVYYCQQYYDWPPLTFGGGTKVEIK	1.75
40769p1.1.A4 (scFv, V domains shown, tested as scFv-Fc supernatant) VH: EVQLLESGGGLVQPGGSLRLSCTASGITFSRFNMFWVRQAPGKGLEFVASIRDDGSWTYYADSVKGRFTISRDNSKNTLYLQMNSLRAEDTAVYYCAKDYNSKDFIYHYVMDVWGQGTTVTVSS VL: QSVLTQPPSASGTPGQRVTISCSGRNSNIGNNVVNWYQQLPGTAPKLLIYKDDQRPSGVPDRFSGSKSGTSASLAISGLQSEDEADYYCSTWDDSLNGWVFGGGTKLTVL	1.67
40769p1.2.E3 (scFv, V domains shown, tested as scFv-Fc supernatant) VH: EVQLLESGGDLVQPGGSLRLSCGASGFTFSDHYMSWVRQAPGKGLEWVADISARGSNTWYADSVKGRFTISRDNSENTLYLQMNSLRAEDTAVYYCAKNWNYNYGMDVWGQGTTVTVSS VL: QSVLTQAPSASGTPGQRVTISCSGSSIQNNYVSWYQQLPGTAPKLLIYRNFERPSGVPDRFSASKSGTSASLAISGLQSEDEADYYCASWDDSLNWVFGGGTKLTVL	1.59
40596p1.F6 (scFv, V domains shown, tested as scFv-Fc supernatant) VH: EVQLLESGGGLVQPGGSLRLSCAASGFDFSKNAMSWVRQAPGKGLEYVAGSGWSGSFIFYADSVKGRFTVSRDNSENTLYLQMSSLRAEDTAVYYCAKNPGFGEMDVWGQGTTVTVSS VL: EIVLTQSPGSLFLSPGERATLTCRASQTIGSNLAWYQQKFGQAPRLLIYGASTRAADIPDRFSGSGSGTEFTLTISSLQSEDFAVYYCQQYNSWPPLTFGGGTKVEIK	1.91
40769p1.1.A2 (scFv, V domains shown, tested as scFv-Fc supernatant) VH: EVQLLESGGGLVQPGGSLRLSCAASGFLFDDYGMSWVRQAPGKGLEWVSAISYKGGSTYYADSVKGRFTISRDNSKNTLYLQMSSLRAEDTAVYYCAKDHKWNYYGMDVWGQGTTVTVSS VL: QSVLTQPPSASGTPGQRVTISCSGSTSNIGNDNYVSWYQQLPGTAPRLLIYKDDQRPSGVPDRFSGSKSGTSASLAISGLQSEDEADYYCGTWDDRLNAWVFGGGTKLTVL	1.61
